- System: MOLT-4
- EXPERIMENT NOTES: NCI tumour cell line growth inhibition, 48 h
Activity calls are given as the source filed them. Cut-off read from the data, not from the text of the source: active = GI50 up to about 1.1 µM and inactive = higher.
Response enum: active, inactive

Worked cases, answers included:
1. CCN(CC)c1ccc2cc(C(=O)Nc3nc(C45CC6CC(CC(C6)C4)C5)cs3)c(=O)oc2c1 : inactive
2. CNC(=S)N/N=C1\C(=O)N(CN2CCOCC2)c2ccc([N+](=O)[O-])cc21 : inactive
3. O=c1cc(NNc2ccccc2)[nH]c(=O)[nH]1 : inactive

Request: // outcome(item) with item = N#Cc1nn(-c2ccc(Cl)cc2)c(=N)c2c(N)n3nc(-c4ccccc4)cc3nc12
Response: active

Request: Per the assay record, what outcome was assigned to Cc1ccc2c(c1)CC1(C2)Cc2ccc(C)cc2C1=O (stereo not drawn) ?
Response: inactive

Request: Which outcome was entered for the molecule Cc1ccc2c(O)cc(-c3ccccc3)nc2n1 in this test?
Response: active

Request: For Fc1cccc(CSc2ncnc3c2ncn3C2CCCS2)c1 (stereo not drawn) , which call appears in the assay record?
Response: inactive

Request: Just curious, what result did COc1ccc2[nH]c3c(C)c4ccnc(NCCCN(C)CCCNc5ccc6ncn7c8ccccc8c(=O)c5c67)c4c(C)c3c2c1 get here?
Response: active

Request: Hi, do you know how CCOC(=O)/C(C(N)=O)=C(O)/C(O)=C/C(=O)c1ccc(Cl)cc1 came out in this test?
Response: inactive

Request: # fetch the recorded call for CC(C)(Br)C(Br)CCC1(C2CO2)CO1 (stereo not drawn) here
Response: inactive

Request: Called result for CC[P+](C)(C)c1ccccc1
Response: inactive

---

- Test system: UACC-62
- EXPERIMENT NOTES: NCI tumour cell line growth inhibition, 48 h
Active and inactive are the calls of the source. Rule as the data show it: active = GI50 up to about 1.1 µM and inactive = higher.
PARAMETER MEASURED: GI50

1) CC(C)N1CCN(c2ccncc2S(=O)(=O)N2CCCCC2)CC1 : > 100 µM (inactive)
2) Cc1ccc(S(=O)(=O)OC(COC(=O)c2ccccc2)C(OS(=O)(=O)c2ccc(C)cc2)C(OS(=O)(=O)c2ccc(C)cc2)C(COC(=O)c2ccccc2)OS(=O)(=O)c2ccc(C)cc2)cc1 (stereo not given) : > 10 µM (inactive)
3) CC1(C)OC[C@@H](O)[C@H](Br)CO1 : > 100 µM (inactive)
4) CN(NC(=O)/C(=C\c1ccco1)NC(=O)c1ccccc1)c1cn[nH]c(=O)c1Cl : > 100 µM (inactive)
5) C=C(Br)N(CC)CC : > 100 µM (inactive)
6) C/C(CC(=O)Nc1ccccc1[N+](=O)[O-])=N\NC(N)=O : > 100 µM (inactive)
7) N#CC(O)CCOCc1ccccc1 (stereo not given) : > 100 µM (inactive)
8) CNn1c(C)n[nH]c1=O : > 100 µM (inactive)
9) Clc1ccc(C2=C(c3ccccc3)C(c3ccc(Cl)cc3)N3C(=N[C@H]4CCCC[C@@H]43)N2)cc1 (stereo not given in full) : 16.7 µM (inactive)

Sure, the documented GI50 for C/C(=C/c1c(C)[nH]c(=O)[nH]c1=O)C(=O)O is > 1370 µM (inactive)

---

- Test system: DMS-114
- EXPERIMENT NOTES: NCI tumour cell line growth inhibition, 48 h
Activity calls are given as the source filed them. Cut-off read from the data, not from the text of the source: active = GI50 up to about 1.1 µM and inactive = higher.
# reported GI50; entries follow

Reported GI50 ( NC(=O)c1cn(C2OC(CO)C(O)C2O)c(=O)[nH]c1=O (centres undefined) ) = > 100 µM (inactive)

Looking up CC#C[C@@]1(O)CCCC[C@@H]1O , I see its GI50 listed as > 100 µM (inactive)

molecule CC[P+](C)(C)c1ccccc1 , GI50 observed: > 100 µM (inactive)

Record O=C(NCCOC(=O)CCCCCCCCC(=O)OCCNC(=O)NC(=O)c1cn(Cc2ccccc2)c(=O)[nH]c1=O)NC(=O)c1cn(Cc2ccccc2)c(=O)[nH]c1=O . Reported GI50: > 100 µM (inactive)

Per the record, CN(/N=C/c1cccc2cccnc12)c1ccc([N+](=O)[O-])cc1[N+](=O)[O-] has GI50 of 20.2 µM (inactive)

GET /value?item= C#CCN(Cc1ccc2nc(-c3ccccc3)c(Cl)nc2c1)c1ccc(Cl)c(Cl)c1 &field=GI50 returns > 100 µM (inactive)

---

- Tested on: NCI/ADR-RES
- EXPERIMENT NOTES: NCI tumour cell line growth inhibition, 48 h
Calls of active or inactive are those of the source. Cut-off read from the data, not from the text of the source: active = GI50 up to about 1.1 µM and inactive = higher.
Select the matching outcome among 1.0 for active, 0.0 for inactive

Illustrative cases are given below, each with its answer.
1) COC(=O)c1c(O)ccc2c1c1c(n2Cc2ccccn2)C(=O)c2ccccc2C1=O : 0.0
2) O=C(O)CCCc1ccc2ccc3ccccc3c2c1 : 0.0
3) O=C1NC(NNc2ccccc2)=N/C1=C\c1ccccc1O : 0.0
4) CC(=O)[O-].[Zn+].c1ccc(/C(=N\Nc2ccccn2)c2ccccn2)cc1 : 1.0
5) CCOC(=O)c1ccc(C(=O)C(C(C)=O)C(=O)OC(C)(C)C)[nH]1 (stereo not given) : 0.0

Request: Please let me know the test result on file for Cc1ccc2c(c1)CC1(C2)Cc2ccc(C)cc2C1=O (stereo not given) .
Response: 0.0

Request: Recorded test outcome, item c1cc2n(n1)CCN2
Response: 0.0

Request: So what was the verdict on O=C1/C(=C/c2cccs2)N=C(c2ccccc2)N1C1Nc2cc3c(cc2S1)NC(N1C(=O)/C(=C/c2cccs2)N=C1c1ccccc1)S3 (stereo not given) in this test?
Response: 0.0

Request: Record lookup: outcome of this test for Cc1ccc(S(=O)(=O)NN=C2CCCCCCCCCCC2)cc1 ?
Response: 0.0

Request: Returns: the outcome recorded for Cc1ccc([N+](=O)[O-])cc1S(=O)(=O)Nc1ccc(C(=O)/C=C/c2ccccc2)cc1 in this assay.
Response: 0.0

---

- System: MCF7
- EXPERIMENT NOTES: NCI tumour cell line growth inhibition, 48 h
Active and inactive are the calls of the source. No stated cut-off is given here; in the data, active = GI50 up to about 1.1 µM and inactive = higher.
PARAMETER MEASURED: GI50

For record CSC1=Nc2ccccc2N(C)c2c1c(-c1ccccc1)nn2C the listed GI50 is 23.8 µM (inactive)

The compound listed as O=C(O)c1cccc(CN2CCCCC2)c1 has a reported GI50 of > 100 µM (inactive)

For record CCOP(=O)(OCC)C(Cc1c[nH]c2ccccc12)C(=O)O (configuration not stated) the listed GI50 is 37.2 µM (inactive)

# GI50 of Cc1c2c(n(CCN(C)C)c1C)NN=C(C#N)S2(=O)=O = > 100 µM (inactive)

response.value for O=C(O)CCCc1ccc2ccc3ccccc3c2c1 (field: GI50) = > 100 µM (inactive)

GI50 for COc1cc(CNNC(N)=S)cc(OC)c1OC is > 100 µM (inactive)

The compound listed as CCc1nc(N)nc(N)c1-c1ccc(Cl)c(Cl)c1 [ETOPRINE] shows GI50 equal to 3.05 µM (inactive)

Reported GI50 of O=C(O)C1CC2C3CCC2C1C3=O (configuration not stated) : > 100 µM (inactive)

Quick note, GI50 for CC(=O)NCCCCN(CCCNC(C)=O)C(=O)OCc1ccccc1 landed at > 100 µM (inactive)

Reported GI50 ( CC(C)(/N=N/C(C)(C)C(=O)NCCO)C(=O)NCCO ) = > 100 µM (inactive)

Sample FC(F)(F)C1(C(F)(F)F)C2CCC3(CC(F)(F)C(F)(F)S3)C1C2 (configuration not stated) ; GI50 observed: 36.1 µM (inactive)

The recorded GI50 for entry Cc1ccc(Nc2n[nH]c(NS(=O)(=O)c3cc(C)c(Cl)cc3S)n2)cc1 equals > 100 µM (inactive)

GI50 recorded for this compound, CN(C(=O)Cc1cc(Cl)c(Cl)cc1NC(=O)CCCN)[C@H]1CCCC[C@@H]1N1CCCC1 , is 20.1 µM (inactive)

Just so you know, measured GI50 for CC12CCC(O)CC1CCC1C2CCC2(C)C(C(=O)CC(O)C(F)(F)F)CCC12 (configuration not stated) came out at 31.2 µM (inactive)

So for CN(CCCNC(=O)c1n[nH]c2c1ccc1ccccc12)CCCNC(=O)c1n[nH]c2c1ccc1ccccc12 , the logged GI50 turned out to be 15 µM (inactive)

Summary for this compound, [N-]=[N+]=CC(=O)OCCCCl : GI50 is > 100 µM (inactive)

---

- Test system: SK-OV-3
- EXPERIMENT NOTES: NCI tumour cell line growth inhibition, 48 h
The source made the active and inactive calls. Rule as the data show it: active = GI50 up to about 1.1 µM and inactive = higher.
Log the outcome using a class from active, inactive

Known results for compounds:
1. CN(C)C(=S)N=C(Nc1ccccc1)Nc1ccccc1 : inactive
2. Fc1cccc(CSc2ncnc3c2ncn3C2CCCS2)c1 (centres undefined) : inactive

Request: Identify the outcome logged in this assay for the compound shown: CCOC(=O)C(Cc1cn(S(=O)(=O)c2ccc(C)cc2)cn1)P(=O)(OCC)OCC (centres undefined)
Response: inactive

Request: How did this test come out for CC(N)CC(=O)O (centres undefined) ?
Response: inactive

Request: How did this test come out for C=C1CC(C#N)(C#N)[C@@H]2CC3CCCC3[C@H]12.C=C1CC(C#N)(C#N)[C@H]2C3CCCC3C[C@@H]12 (some centres undefined) ?
Response: inactive
